- Assayed system: UniProtKB Q92633
- Method description: LPA1 Migration Assay (Oris)
- Measurement setup: read-out: Cell Migration EC50
Reported EC50 values are given for each entry in this list.

These recorded examples may help you get a feel for the data.
Smiles | EC50
C[C@@H](OC(=O)Nc1c(C#Cc2cc3sc(C4(C(=O)O)CC4)cc3s2)nnn1C)c1ccccc1 | 50 to 500 nM
C[C@@H](OC(=O)Nc1c(C#Cc2cc3sc(C4(C(=O)O)CC4)cc3s2)oc2ccccc12)c1ccccc1 | > 500 nM
C[C@@H](OC(=O)Nc1ccncc1C#Cc1cc2sc(C3(C(=O)O)CC3)cc2s1)c1ccccc1 | > 500 nM

Lab book: EC50 of `C[C@@H](OC(=O)Nc1c(-c2cc3sc(-c4ccc(CC(=O)O)s4)cc3s2)nnn1C)c1ccccc1` noted as > 500 nM

Lab book: EC50 of `Cc1noc(-c2ccc(-c3cc(F)c(Oc4ccccc4C(=O)O)c(F)c3)cc2)c1NC(=O)O[C@H](C)c1ccccc1Cl` noted as < 50 nM

Lab book: EC50 of `Cc1nsc(-c2cc3sc(-c4cnc(C5(C(=O)O)CC5)c(F)c4)cc3s2)c1NC(=O)O[C@H](C)c1ccccc1` noted as 50 to 500 nM

Lab book: EC50 of `COc1cc(CC(=O)O)ccc1-c1cc2sc(-c3nnn(C)c3NC(=O)O[C@H](C)c3ccccc3)cc2s1` noted as > 500 nM

---

Reported pEC50 values are given for each entry in this list.
- Assayed system: LPA/S1P GPCR of interest (Homo sapiens)
- Method description: Beta-Arrestin based assay (PathHunter)
- Description: CMV promoter based DNA constructs expressing a fusion of the LPA/S1P GPCR of interest and ProLink™ tag were used to transfect EA Parental™ CHO cells (DiscoverX, Fremont, Calif.) using a FuGENE® transfection kit (Roche). Beta-Arrestin based assays were conducted 24-48 hrs post transfection using PathHunter® assay kits (DiscoverX, Fremont, Calif.). […] End point luminescence data were plotted and fit to a 4 parameter logistic function to obtain IC50 values. […]
pEC50: −log10 of the molar value.

Smiles | pEC50
Cc1onc(-c2cc(F)c(-c3cc4sc(C5(C(=O)O)CC5)cc4s3)cc2F)c1NC(=O)O[C@H](C)c1ccccc1 | > 7.30
Cc1cc(CC(=O)O)ccc1-c1cc2sc(-c3nnn(C)c3NC(=O)O[C@H](C)c3ccccc3)cc2s1 | 6.30 to 7.30

Lab book: pEC50 of `Cc1noc(-c2ccc(-c3ccc(Oc4ccccc4C(=O)O)c(F)c3)cc2)c1NC(=O)O[C@H](C)c1ccccc1` noted as > 7.30

Lab book: pEC50 of `Cc1noc(-c2ccc(-c3ccc(Oc4ccc(C(=O)O)cc4)cc3)cc2)c1NC(=O)O[C@H](C)c1ccccc1` noted as < 6.30

Lab book: pEC50 of `C[C@@H](OC(=O)Nc1c(-c2cc3sc(-c4ccc(C5(C(=O)O)CC5)c5ccccc45)cc3s2)cnn1C)c1ccccc1` noted as < 6.30

Lab book: pEC50 of `C[C@@H](OC(=O)Nc1c(-c2cc3sc(-c4ccc(C5(C(=O)O)CC5)c(S(C)(=O)=O)c4)cc3s2)nnn1C)c1ccccc1` noted as < 6.30

Lab book: pEC50 of `COc1cc(CC(=O)O)ccc1-c1cc2sc(-c3nnn(C)c3NC(=O)O[C@H](C)c3ccccc3)cc2s1` noted as < 6.30

---

- Assayed system: LPA1 (Homo sapiens)
- Sequence (Q92633 whole entry): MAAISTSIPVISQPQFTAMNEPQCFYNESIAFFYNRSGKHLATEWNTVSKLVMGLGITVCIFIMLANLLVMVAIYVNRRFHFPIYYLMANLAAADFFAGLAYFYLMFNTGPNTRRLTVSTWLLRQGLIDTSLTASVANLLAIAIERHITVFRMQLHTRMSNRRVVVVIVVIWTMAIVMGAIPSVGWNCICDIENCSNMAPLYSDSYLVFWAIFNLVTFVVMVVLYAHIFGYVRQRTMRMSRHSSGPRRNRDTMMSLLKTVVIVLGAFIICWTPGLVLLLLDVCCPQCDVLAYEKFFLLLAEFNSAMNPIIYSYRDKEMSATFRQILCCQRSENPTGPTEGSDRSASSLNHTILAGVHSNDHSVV
- Method description: LPA1 Migration Assay (Oris)
- Measurement setup: read-out: Cell Migration EC50
pEC50: −log10 of the molar value.
Reported pEC50 values are given for each entry in this list.

These recorded examples may help you get a feel for the data.
Compound | Assayed system | Result
Cc1noc(-c2ccc(-c3cc(F)c(Oc4nccnc4C(=O)O)c(F)c3)cc2)c1NC(=O)O[C@H](C)c1ccccc1 [IT305] | LPA1 (Homo sapiens) | > 7.30
C[C@@H](OC(=O)N(C)c1c(C#Cc2cc3sc(C4(C(=O)O)CC4)cc3s2)cnn1C)c1ccccc1 [IT097] | LPA1 (Homo sapiens) | < 6.30
Cc1noc(-c2ccc(-c3ccc(OC4(C(=O)O)CCC4)cc3)cc2)c1NC(=O)O[C@H](C)c1ccccc1 [IT196] | LPA1 (Homo sapiens) | 6.30 to 7.30
C[C@@H](OC(=O)Nc1c(-c2cc3sc(-c4ccc(C5(C(=O)O)CC5)c(F)c4)cc3s2)cnn1C)c1ccccc1 [IT295] | LPA1 (Homo sapiens) | 6.30 to 7.30
C[C@@H](OC(=O)Nc1c(-c2ccc(-c3cc(F)c(OC4(C(=O)O)CC4)c(F)c3)cc2)nnn1C)c1ccccc1 [IT312] | LPA1 (Homo sapiens) | 6.30 to 7.30
CCOc1cc(CC(=O)O)ccc1-c1cc2sc(-c3cnn(C)c3NC(=O)O[C@H](C)c3ccccc3)cc2s1 [IT190] | LPA1 (Homo sapiens) | < 6.30

Lab book: pEC50 of Cc1noc(-c2ccc(-c3cc(F)c(Oc4ncccc4C(=O)O)c(F)c3)cc2)c1NC(=O)O[C@H](C)c1ccccc1 [IT258] noted as > 7.30

---

- Assayed system: LPA/S1P GPCR of interest (Homo sapiens)
- Method description: Beta-Arrestin based assay (PathHunter)
Endpoint: EC50

These recorded examples may help you get a feel for the data.
Compound | Assayed system | EC50
Cc1cc(-c2cc3sc(-c4snc(C)c4NC(=O)O[C@H](C)c4ccccc4)cc3s2)c(F)cc1C1(C(=O)O)CC1 [IT338] | LPA/S1P GPCR of interest (Homo sapiens) | 50 to 500 nM
Cc1noc(-c2ccc(-c3cc(F)c(Oc4ccccc4C(=O)O)c(F)c3)cc2)c1NC(=O)O[C@H](C)c1ccccc1 [IT316] | LPA/S1P GPCR of interest (Homo sapiens) | < 50 nM
Cc1noc(-c2ccc(-c3ccc(Oc4ncccc4C(=O)O)cc3)cc2)c1NC(=O)O[C@H](C)c1ccccc1 [IT199] | LPA/S1P GPCR of interest (Homo sapiens) | < 50 nM
Cc1noc(-c2ccc(-c3ccc(S(N)(=O)=O)cc3)cc2)c1NC(=O)O[C@H](C)c1ccccc1 [IT129] | LPA/S1P GPCR of interest (Homo sapiens) | 50 to 500 nM
Cc1cc(-c2cc3sc(-c4cnn(C)c4NC(=O)O[C@H](C)c4ccccc4)cc3s2)ccc1CC(=O)O [IT254] | LPA/S1P GPCR of interest (Homo sapiens) | 50 to 500 nM
Cn1ncc(C#Cc2cc3sc(C4(C(=O)O)CC4)cc3s2)c1NC(=O)O[C@@H](c1ccccc1)C(F)(F)F [IT114] | LPA/S1P GPCR of interest (Homo sapiens) | < 50 nM
C[C@@H](OC(=O)Nc1c(-c2ccc(-c3cc(F)c(Oc4cc(F)ccc4C(=O)O)c(F)c3)cc2)nnn1C)c1ccccc1 [IT514] | LPA/S1P GPCR of interest (Homo sapiens) | < 50 nM
Cc1cc(C2(C(=O)O)CC2)c(F)cc1-c1cc2sc(-c3cnn(C)c3NC(=O)O[C@H](C)c3ccccc3)cc2s1 [IT342] | LPA/S1P GPCR of interest (Homo sapiens) | < 50 nM
Cc1noc(-c2ccc(-c3cc(F)c(Oc4ncccc4C(=O)O)c(F)c3)cc2)c1NC(=O)O[C@H](C)c1ccccc1 [IT258] | LPA/S1P GPCR of interest (Homo sapiens) | < 50 nM
Cc1noc(-c2ccc(NC(=O)c3csc(C4(C(=O)O)CC4)n3)cc2)c1NC(=O)O[C@H](C)c1ccccc1 [IT152] | LPA/S1P GPCR of interest (Homo sapiens) | > 500 nM

Lab book: EC50 of Cc1nsc(-c2cc3sc(-c4cc(F)c(CC(=O)O)c(F)c4)cc3s2)c1NC(=O)O[C@H](C)c1ccccc1 [IT156] noted as 50 to 500 nM

Lab book: EC50 of Cc1cc(-c2cc3sc(-c4snc(C)c4NC(=O)O[C@H](C)c4ccccc4)cc3s2)ccc1C1(C(=O)O)CC1 [IT325] noted as 50 to 500 nM

Lab book: EC50 of C[C@@H](OC(=O)Nc1c(-c2cc3sc(-c4ccc(C5(C(=O)O)CC5)c5ccccc45)cc3s2)nnn1C)c1ccccc1 [IT321] noted as 50 to 500 nM

Lab book: EC50 of Cc1noc(-c2ccc(-c3ccc(Oc4ccc(C(=O)O)s4)cc3)cc2)c1NC(=O)O[C@H](C)c1ccccc1 [IT409] noted as 50 to 500 nM

Lab book: EC50 of Cc1nsc(-c2cc3sc(-c4ccc5occ(C6(C(=O)O)CC6)c5c4)cc3s2)c1NC(=O)O[C@H](C)c1ccccc1 [IT352] noted as > 500 nM

Lab book: EC50 of Cc1c(C#Cc2cnn(C)c2NC(=O)O[C@H](C)c2ccccc2)sc2c(C)c(C3(C(=O)O)CC3)sc12 [IT110] noted as < 50 nM

Lab book: EC50 of C[C@@H](OC(=O)Nc1c(-c2ccc(-c3nnc(CC(=O)O)o3)cc2)nnn1C)c1ccccc1 [IT143] noted as > 500 nM

Lab book: EC50 of C[C@@H](OC(=O)Nc1c(-c2ccc(-c3cc(F)c(Oc4ccccc4C(=O)O)c(F)c3)cc2)cnn1C)c1ccccc1 [IT425] noted as < 50 nM

Lab book: EC50 of Cc1noc(-c2ccc(-c3cc(F)c(OC4(C(=O)O)CC4)c(F)c3)cc2)c1NC(=O)O[C@H](C)c1ccccc1 [IT304] noted as < 50 nM
